TESTED_ON: recombinant human IL-5 (human, UniProt P05113 20-134)
MEASUREMENT_PROTOCOL: Biacore SPR, Ab supernatant on Protein A chip
Parameter: Kd. Scope: all listed entries.
State the answer as a number, implicitly in pM.

Worked examples follow.
3A5.482 (antibody, human IgG4 S228P, lambda, name in Kabat numbering, V domains shown) VH: QVQLQESGPGLVKPSQTLSLTCTVSGGSISNGGYYWSWIRQHPGKGLEWIGYIYYSGSTYYNPSLKSRVTISVDTSKNQFSLKLSSVTAADTAVYYCLSLGNWFDYWGQGTLVTVSS VL: SYVLTQPPSVSVAPGQTARITCGGNNIGSKNVYWYQQKPGQAPVLVVHDDSDRPSGIPERFSGSNSGNTATLTISRVEVGDEADYSCQVWDSSSDHVVFGGGTKLTVLG; 790
3A5.494 (antibody, human IgG4 S228P, lambda, name in Kabat numbering, V domains shown) VH: QVQLQESGPGLVKPSQTLSLTCTVSGGSISNGGYYWSWIRQHPGKGLEWIGYIYYSGSTYYNPSLKSRVTISVDTSKNQFSLKLSSVTAADTAVYYCAQLGNWFDYWGQGTLVTVSS VL: SYVLTQPPSVSVAPGQTARITCGGNNIGSKNVYWYQQKPGQAPVLVVHDDSDRPSGIPERFSGSNSGNTATLTISRVEVGDEADYSCQVWDSSSDHVVFGGGTKLTVLG; 945
3A5.492 (antibody, human IgG4 S228P, lambda, name in Kabat numbering, V domains shown) VH: QVQLQESGPGLVKPSQTLSLTCTVSGGSISNGGYYWSWIRQHPGKGLEWIGYIYYSGSTYYNPSLKSRVTISVDTSKNQFSLKLSSVTAADTAVYYCAYLGNWFDYWGQGTLVTVSS VL: SYVLTQPPSVSVAPGQTARITCGGNNIGSKNVYWYQQKPGQAPVLVVHDDSDRPSGIPERFSGSNSGNTATLTISRVEVGDEADYSCQVWDSSSDHVVFGGGTKLTVLG; 3370

I am curious: what Kd value has been reported for 3A5.485 (antibody, human IgG4 S228P, lambda, name in Kabat numbering, V domains shown) VH: QVQLQESGPGLVKPSQTLSLTCTVSGGSISNGGYYWSWIRQHPGKGLEWIGYIYYSGSTYYNPSLKSRVTISVDTSKNQFSLKLSSVTAADTAVYYCQSLGNWFDYWGQGTLVTVSS VL: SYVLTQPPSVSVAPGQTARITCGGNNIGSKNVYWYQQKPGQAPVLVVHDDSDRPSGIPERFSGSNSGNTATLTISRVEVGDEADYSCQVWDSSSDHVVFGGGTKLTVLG ?
154

Similarly, 3A5.481 (antibody, human IgG4 S228P, lambda, name in Kabat numbering, V domains shown) VH: QVQLQESGPGLVKPSQTLSLTCTVSGGSISNGGYYWSWIRQHPGKGLEWIGYIYYSGSTYYNPSLKSRVTISVDTSKNQFSLKLSSVTAADTAVYYCSSLGNWFDYWGQGTLVTVSS VL: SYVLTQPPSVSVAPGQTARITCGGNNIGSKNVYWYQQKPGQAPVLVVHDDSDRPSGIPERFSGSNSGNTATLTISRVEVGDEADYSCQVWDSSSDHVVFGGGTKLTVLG ?
130
